Test system: S1507-2
Experiment: relative IC50 (inflection point of fitted dose-response curve, CellTiter-Glo viability, 72 h; top asymptote may be below 50% inhibition); higher = less potent
# relative IC50 listing for each entry below
property-name: relative IC50 (nM)

In [3]: df
Out[3]:
                                smiles_repr  measured_target  qualifier_operator  observed_result
0  Nc1ccn([C@@H]2O[C@H](CO)[C@@H](O)C2(F)F)c(=O)n1          S1507-2                   =            0.876
1  O=C(/C=C/c1cccnc1)NCCCCC1CCN(C(=O)c2ccccc2)CC1          S1507-2                   =             37.8
2  CO[C@H]1/C=C\C=C(/C)C(=O)NC2=CC(=O)C(NCCN(C)C)=C(C[C@@H](C)C[C@H](OC)[C@H](O)[C@@H](C)/C=C(\C)[C@@H]1OC(N)=O)C2=O          S1507-2                   =             78.4
3  CC(=O)c1c(C)c2cnc(Nc3ccc(N4CCNCC4)cn3)nc2n(C2CCCC2)c1=O          S1507-2                   =              987
4  C=CC(=O)N1CCC[C@@H](n2nc(-c3ccc(Oc4ccccc4)cc3)c3c(N)ncnc32)C1          S1507-2                   >             1000
5  COc1cc2c(NC3CCN(C(C)C)CC3)nc(N3CCC(F)(F)CC3)nc2cc1OCCCN1CCCC1          S1507-2                   =             1940
6  CCNC(=O)c1noc(-c2cc(C(C)C)c(O)cc2O)c1-c1ccc(CN2CCOCC2)cc1          S1507-2                   =             18.3
